Target: T1, recombinant human VISTA (His-tagged) (human, UniProt Q9H7M9 33-194)
T1 construct: bought soluble protein (Sino Biological); also called hVISTA; human VISTA polypeptide
Experiment: ELISA, plate coated with human VISTA; unit nM from the legend paragraph 698
pEC50: −log10 of the molar value.
We begin with a simple list: items and their reported pEC50.

# binder, pEC50
measured = [
    ("anti-VISTA clone V4-C28 IgG1 (antibody, V domains shown) VH: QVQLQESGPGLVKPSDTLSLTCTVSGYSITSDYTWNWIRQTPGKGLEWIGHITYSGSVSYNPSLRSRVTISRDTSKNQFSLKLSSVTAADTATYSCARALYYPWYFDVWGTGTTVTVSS VL: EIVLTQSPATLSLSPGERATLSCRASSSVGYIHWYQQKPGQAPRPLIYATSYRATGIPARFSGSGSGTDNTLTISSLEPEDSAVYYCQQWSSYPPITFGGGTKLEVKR", 10.28),
    ("anti-VISTA clone V4-C27 IgG1 (antibody, V domains shown) VH: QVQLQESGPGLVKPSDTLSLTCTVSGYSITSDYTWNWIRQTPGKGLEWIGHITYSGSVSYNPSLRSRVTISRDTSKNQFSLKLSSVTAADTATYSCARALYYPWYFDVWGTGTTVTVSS VL: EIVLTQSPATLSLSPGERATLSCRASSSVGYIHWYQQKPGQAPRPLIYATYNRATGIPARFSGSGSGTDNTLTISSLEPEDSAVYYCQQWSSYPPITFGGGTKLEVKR", 10.43),
    ("anti-VISTA clone V4-C9 IgG1 (antibody, V domains shown) VH: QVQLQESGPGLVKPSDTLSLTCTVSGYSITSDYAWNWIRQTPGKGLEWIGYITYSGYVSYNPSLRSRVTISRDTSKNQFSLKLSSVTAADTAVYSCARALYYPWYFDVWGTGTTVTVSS VL: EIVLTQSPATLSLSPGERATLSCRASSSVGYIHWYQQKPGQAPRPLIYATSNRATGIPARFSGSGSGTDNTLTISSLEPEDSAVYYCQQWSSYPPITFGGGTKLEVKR", 10.52),
    ("anti-VISTA clone V4-C24 IgG1 (antibody, V domains shown) VH: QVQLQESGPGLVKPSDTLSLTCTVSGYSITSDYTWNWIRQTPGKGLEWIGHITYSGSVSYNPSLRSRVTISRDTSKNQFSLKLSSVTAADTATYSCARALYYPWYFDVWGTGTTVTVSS VL: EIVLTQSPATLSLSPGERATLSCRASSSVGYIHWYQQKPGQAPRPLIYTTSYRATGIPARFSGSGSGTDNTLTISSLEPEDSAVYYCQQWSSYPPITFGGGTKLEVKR", 10.49),
]
